# System: rabbit skin cells
# ASSAY CONTEXT: 48 h
ASSAY METRIC: CC50 (mM)
Answers are plain numbers, in mM.

Query NC[C@H]1CC[C@H](C(=O)O)CC1 [tranexamic acid] yields CC50 of 320

meta.source: patent US20220249416A1
